tested on: U2OS; assay: Multiplex assay against U2OS; assay type: toxicity, cell-based; conditions: human, 12 h, 10 µM, compound concentration 10 uM, replicate 2
Just a reminder that ties go to no: only Population Normal (%) strictly below 90% counts as yes.

| Compound | Classification |
| --- | --- |
| CC(C)Oc1ccc(C(=O)N[C@H](CNC(=O)CN(C)C)Cc2ccc(-c3cn4cccc([C@H](C)O)c4n3)cc2)cc1Cl [GSK-923295A] | no |
| Cc1nc(Cc2cccc(C(F)(F)F)c2)sc1-c1ccc(C(N)=O)nc1 [TP-024n] | no |

Proceed to the following item.
Prompt line: Does the reported Population Normal (%) of Cl.Cl.NC1(c2ccc(-c3nc4ccn5c(=O)[nH]nc5c4cc3-c3ccccc3)cc2)CCC1 stay below 90%?
Response line: yes
